- tgt: Fatty acid synthase (Homo sapiens)
- methodNotes: FAS thioesterase domain inhibitors, SAR follow-up, biochemical, kinetic fluorescence intensity, dose response (AID 652165)
- testParameters: recombinant FAS-TE, OMFH fluorogenic substrate
Activity calls are given as the source filed them.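 How the source made its calls: active means IC50 at or below 20 µM; inactive means the rest.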
assayMetric: IC50

// known answers, use as guide
smilesRecord	tgt	IC50
CC1CCN(S(=O)(=O)c2ccc(-c3csc(NC(=O)C4CC4)n3)cc2)CC1	Fatty acid synthase (Homo sapiens)	> 80000 nM (inactive)
CCCCC(=O)Nc1nc(-c2cccc(S(=O)(=O)N3CCOCC3)c2)cs1	Fatty acid synthase (Homo sapiens)	18100 nM
O=C(Nc1nc(-c2ccc(S(=O)(=O)N3CCCC3)cc2)cs1)C1CCC1	Fatty acid synthase (Homo sapiens)	347 nM
CCCCC(=O)Nc1nc(-c2ccc(S(=O)(=O)N(CC)CC)cc2)cs1	Fatty acid synthase (Homo sapiens)	169 nM

// query IC50 for O=C(Nc1nc(-c2ccc(S(=O)(=O)N3CCCC3)cc2)cs1)C1CC1 ?
// result 658 nM

// query Then this compound: CCCCC(=O)Nc1nc(-c2ccc(S(=O)(=O)N3CCC(C)CC3)cc2)cs1
// result 533 nM

// query Then this compound: CCN(CC)S(=O)(=O)c1ccc(-c2csc(NC(=O)C3CCC3)n2)cc1
// result 966 nM

// query Then this compound: CC(C)C(=O)Nc1nc(-c2ccc(S(=O)(=O)N(C)C)cc2)cs1
// result 559 nM

----------
- tgt: Fatty acid synthase (Homo sapiens) (UniProt P49327)
- Sequence (P49327 whole entry, looked up, the tested form may be a part): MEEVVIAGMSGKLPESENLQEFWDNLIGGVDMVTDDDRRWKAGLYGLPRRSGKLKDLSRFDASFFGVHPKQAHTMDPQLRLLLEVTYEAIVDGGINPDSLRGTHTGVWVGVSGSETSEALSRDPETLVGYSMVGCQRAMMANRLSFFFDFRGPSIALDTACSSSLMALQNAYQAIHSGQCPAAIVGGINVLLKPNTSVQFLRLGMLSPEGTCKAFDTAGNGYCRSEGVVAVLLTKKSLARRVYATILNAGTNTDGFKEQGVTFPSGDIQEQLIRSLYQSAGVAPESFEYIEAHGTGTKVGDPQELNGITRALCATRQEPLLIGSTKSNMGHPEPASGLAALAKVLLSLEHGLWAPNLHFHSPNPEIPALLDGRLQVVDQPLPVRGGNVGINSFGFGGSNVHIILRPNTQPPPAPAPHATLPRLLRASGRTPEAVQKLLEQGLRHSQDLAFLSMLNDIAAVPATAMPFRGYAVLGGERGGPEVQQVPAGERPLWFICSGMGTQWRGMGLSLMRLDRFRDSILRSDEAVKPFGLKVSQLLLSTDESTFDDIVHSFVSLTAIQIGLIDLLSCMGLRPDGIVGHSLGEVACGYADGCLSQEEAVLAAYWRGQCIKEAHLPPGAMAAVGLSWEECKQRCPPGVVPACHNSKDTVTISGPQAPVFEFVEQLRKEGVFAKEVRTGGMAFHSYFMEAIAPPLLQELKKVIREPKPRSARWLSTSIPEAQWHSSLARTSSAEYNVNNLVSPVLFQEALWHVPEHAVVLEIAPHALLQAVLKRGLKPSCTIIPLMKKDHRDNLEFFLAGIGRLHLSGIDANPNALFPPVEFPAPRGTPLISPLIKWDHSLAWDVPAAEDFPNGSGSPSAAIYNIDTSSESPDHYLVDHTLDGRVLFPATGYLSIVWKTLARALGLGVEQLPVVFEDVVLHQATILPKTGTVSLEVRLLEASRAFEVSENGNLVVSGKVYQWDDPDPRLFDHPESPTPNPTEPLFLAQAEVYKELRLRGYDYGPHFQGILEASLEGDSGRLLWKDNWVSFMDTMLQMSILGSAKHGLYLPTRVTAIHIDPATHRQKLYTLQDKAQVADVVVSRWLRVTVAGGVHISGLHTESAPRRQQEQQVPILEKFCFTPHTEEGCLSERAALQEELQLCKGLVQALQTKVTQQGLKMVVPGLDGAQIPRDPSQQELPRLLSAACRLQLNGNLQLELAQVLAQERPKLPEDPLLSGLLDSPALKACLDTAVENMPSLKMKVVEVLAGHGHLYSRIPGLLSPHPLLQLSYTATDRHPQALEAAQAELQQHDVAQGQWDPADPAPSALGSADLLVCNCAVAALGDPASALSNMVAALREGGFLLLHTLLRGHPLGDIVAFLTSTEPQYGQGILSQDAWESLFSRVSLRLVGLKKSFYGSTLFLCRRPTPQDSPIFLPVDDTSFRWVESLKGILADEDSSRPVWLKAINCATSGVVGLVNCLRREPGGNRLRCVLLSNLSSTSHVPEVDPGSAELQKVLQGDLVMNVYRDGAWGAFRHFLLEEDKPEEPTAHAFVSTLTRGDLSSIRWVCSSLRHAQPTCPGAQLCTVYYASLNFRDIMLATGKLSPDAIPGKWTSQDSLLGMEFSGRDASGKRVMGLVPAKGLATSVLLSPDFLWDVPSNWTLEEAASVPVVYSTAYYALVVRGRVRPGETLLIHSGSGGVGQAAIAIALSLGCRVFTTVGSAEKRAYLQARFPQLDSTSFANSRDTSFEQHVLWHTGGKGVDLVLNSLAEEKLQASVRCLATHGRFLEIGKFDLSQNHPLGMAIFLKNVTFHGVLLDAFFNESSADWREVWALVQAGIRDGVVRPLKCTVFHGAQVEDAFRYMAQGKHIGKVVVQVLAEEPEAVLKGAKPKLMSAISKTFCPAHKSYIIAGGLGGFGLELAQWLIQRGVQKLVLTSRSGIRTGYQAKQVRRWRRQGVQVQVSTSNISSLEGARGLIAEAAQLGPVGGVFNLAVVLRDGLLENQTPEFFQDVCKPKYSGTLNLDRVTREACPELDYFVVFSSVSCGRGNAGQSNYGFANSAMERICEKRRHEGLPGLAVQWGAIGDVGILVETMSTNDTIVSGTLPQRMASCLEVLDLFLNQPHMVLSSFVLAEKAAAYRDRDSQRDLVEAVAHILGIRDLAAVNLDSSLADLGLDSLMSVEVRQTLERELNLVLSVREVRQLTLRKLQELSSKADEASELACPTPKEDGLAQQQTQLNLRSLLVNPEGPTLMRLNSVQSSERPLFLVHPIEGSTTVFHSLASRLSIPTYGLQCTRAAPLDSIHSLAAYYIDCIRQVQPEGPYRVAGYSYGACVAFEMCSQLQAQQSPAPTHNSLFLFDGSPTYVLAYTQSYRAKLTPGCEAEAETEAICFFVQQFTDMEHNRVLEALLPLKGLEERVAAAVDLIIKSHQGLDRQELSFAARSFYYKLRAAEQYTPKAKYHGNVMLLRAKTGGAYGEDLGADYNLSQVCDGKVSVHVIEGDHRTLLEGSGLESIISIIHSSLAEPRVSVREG
- methodNotes: FAS thioesterase domain inhibitors, SAR follow-up, biochemical, kinetic fluorescence intensity, dose response (AID 652165)
- testParameters: recombinant FAS-TE, OMFH fluorogenic substrate
Activity calls are given as the source filed them.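 Rule for the calls: active = IC50 at or below 20 µM; inactive = the rest.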
assayMetric: IC50

// known answers, use as guide
smilesRecord	IC50
CC(C)(C)OC(=O)Nc1nc(-c2ccc(S(=O)(=O)N3CCOCC3)cc2)cs1	inactive
O=C(Nc1nc(-c2ccc(S(=O)(=O)N3CCOCC3)cc2)cs1)C1CCCC1	> 80000 nM (inactive)
CCCCC(=O)Nc1nc(-c2ccc(S(=O)(=O)N3CCOCC3)cc2)cs1	552 nM
O=C(Nc1nc(-c2ccc(S(=O)(=O)N3CCOCC3)cc2)cs1)C1CCCCC1	> 80000 nM (inactive)
CCCCC(=O)Nc1nc(-c2ccc(C(=O)N3CCOCC3)cc2)cs1	inactive

// query IC50 for CC(C)C(=O)Nc1nc(-c2ccc(S(=O)(=O)N3CCOCC3)cc2)cs1 ?
// result 875 nM

// query Then this compound: CN(C)S(=O)(=O)c1ccc(-c2csc(NC(=O)C3CCC3)n2)cc1
// result 1360 nM

// query Then this compound: CCCCC(=O)Nc1nc(-c2ccc(S(=O)(=O)N3CCCC3)cc2)cs1
// result 193 nM

// query Then this compound: CCC(=O)Nc1nc(-c2ccc(S(=O)(=O)N3CCOCC3)cc2)cs1
// result 4160 nM

// query Then this compound: CCN(CC)S(=O)(=O)c1ccc(-c2csc(NC(=O)C3CCCC3)n2)cc1
// result 1180 nM

----------
- tgt: Fatty acid synthase (Homo sapiens) (UniProt P49327)
- methodNotes: FAS thioesterase domain inhibitors, SAR follow-up, biochemical, kinetic fluorescence intensity, dose response (AID 652165)
- testParameters: recombinant FAS-TE, OMFH fluorogenic substrate
The source made the active and inactive calls.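 How the source made its calls: active means IC50 at or below 20 µM; inactive means the rest.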
Assign a class; possible classes are yes (1) for active, no (0) for inactive

The examples below pair each entry with its known result.
compound	tgt	qualitativeLabel
CCC(=O)Nc1nc(-c2ccc(S(=O)(=O)N3CCCC3)cc2)cs1	Fatty acid synthase (Homo sapiens) (UniProt P49327)	yes (1)
O=C(Nc1nc(-c2ccc(S(=O)(=O)N3CCCC3)cc2)cs1)C1CCCC1	Fatty acid synthase (Homo sapiens) (UniProt P49327)	yes (1)
CCN(CC)S(=O)(=O)c1ccc(-c2csc(NC(=O)C3CC3)n2)cc1	Fatty acid synthase (Homo sapiens) (UniProt P49327)	yes (1)

// query Hey, what did the test say about CC(C)C(=O)Nc1nc(-c2ccc(S(=O)(=O)N3CCCC3)cc2)cs1 ?
// result yes (1)

// query Then this compound: CCC(=O)Nc1nc(-c2ccc(S(=O)(=O)N3CCC(C)CC3)cc2)cs1
// result no (0)

// query Then this compound: CCC(=O)Nc1nc(-c2ccc(S(=O)(=O)N(CC)CC)cc2)cs1
// result yes (1)

// query Then this compound: CC1CCN(S(=O)(=O)c2ccc(-c3csc(NC(=O)C(C)C)n3)cc2)CC1
// result yes (1)

// query Then this compound: CN(C)S(=O)(=O)c1ccc(-c2csc(NC(=O)C3CC3)n2)cc1
// result yes (1)

// query Then this compound: CC(=O)Nc1nc(-c2ccc(S(=O)(=O)N3CCSCC3)cc2)cs1
// result no (0)
